Kindly state TGI for each of the entries shown.
System: NCI-H23 lung
assay.notes: NCI tumour cell line growth inhibition, 48 h
One number for each entry, in µM.

Known results for compounds:
So for Clc1ccc(C2CC(c3cccc(Nc4ccncc4)c3)=NN2c2ccccc2)cc1 (stereo unspecified) , the logged TGI turned out to be 3.7

The recorded TGI for entry CC1=NN(c2cccc(Cl)c2)C2(C1=Cc1cccs1)C(Cl)C(=O)N2c1nc2ccccc2s1 (stereo unspecified) equals 47.2

Record `Cc1occc1C(=S)Nc1ccc(Cl)c(C(=O)OCC(C)C)c1` . Reported TGI: 45.3

The reported value for `O=c1ccn(Cc2ccccc2CCl)c(=O)[nH]1` in terms of TGI is 40.1

Notebook: `O=C(Nc1ccc(Oc2ccc(NC(=O)Nc3ccccc3Cl)cc2)cc1)Nc1ccccc1Cl` , TGI read as 18.5

Parameters: items (list). Returns: TGI for each item.
1. CCOC(=O)NC(Nc1ccc(S(=O)(=O)Nc2ccc(OC)nn2)cc1)(C(F)(F)F)C(F)(F)F
2. OCC(O)C(O)C(O)C(O)CNCCO/N=C1/C(c2c(O)[nH]c3ccccc23)=Nc2ccccc21 (stereo unspecified)
3. N#CC(C(=O)/C(=N/NC(=O)c1ccccc1O)C(C#N)c1ccc(Br)cc1)c1ccc(Br)cc1 (stereo unspecified)
4. CSC1=C(SC)C(=O)c2cn(C)c(=O)cc2C1=O

Result:
[96.4, 23.7, 16.4, 11.1]
